Target: Methionine aminopeptidase 2 (Homo sapiens)
Sequence (P50579 whole entry): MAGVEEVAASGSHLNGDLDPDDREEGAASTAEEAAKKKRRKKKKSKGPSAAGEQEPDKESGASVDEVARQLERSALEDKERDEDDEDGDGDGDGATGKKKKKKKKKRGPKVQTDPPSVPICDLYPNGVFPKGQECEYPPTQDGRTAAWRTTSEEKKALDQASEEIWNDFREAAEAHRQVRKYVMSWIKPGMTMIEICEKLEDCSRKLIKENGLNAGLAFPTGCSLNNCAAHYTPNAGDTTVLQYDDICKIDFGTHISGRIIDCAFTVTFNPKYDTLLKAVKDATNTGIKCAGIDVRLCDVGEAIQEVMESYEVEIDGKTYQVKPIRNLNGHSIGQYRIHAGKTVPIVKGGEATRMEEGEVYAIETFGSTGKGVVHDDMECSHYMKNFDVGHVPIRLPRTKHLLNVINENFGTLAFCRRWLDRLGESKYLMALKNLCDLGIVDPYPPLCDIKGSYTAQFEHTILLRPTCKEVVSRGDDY
reported.metric: IC50

Q) Output measured IC50 for this item: COc1ccc(N2CCN(c3nc(-c4ccccn4)nc4ccccc34)CC2)cc1
A) > 100 µM

====

Molecular target: Methionine aminopeptidase 1 (Homo sapiens, UniProt P53582)
pIC50: −log10 of the molar value.
reported.metric: pIC50

Q) Output measured pIC50 for this item: CO[C@@H](C(=O)N[C@H]1CC[C@@H](OC(=O)C2CCCCC2)CNC1=O)[C@H](O)[C@@H](O)[C@H](O)/C(C)=C/C(C)(C)C
A) < 5.00

Just for reference, ChEMBL document CHEMBL4052606 is where these values come from.
